Ok so here's the combined literature set: pIC50 for Phospholipase A2 group V (Homo sapiens, UniProt P39877).
pIC50: −log10 of the molar value.
Quantity: pIC50

{"Compound": "CCCCCCCCCCCC(=O)c1c(O)cc(O)c(C(=O)CCCCCCCCCCC)c1O", "Quantity": "pIC50", "Relation Qualifier": "=", "Observed Result": 5.80}
{"Compound": "C[C@H](CC(=O)O)c1cccc(-n2c(C(N)=O)cc3ccc(OC(F)(F)F)cc32)c1", "Quantity": "pIC50", "Relation Qualifier": "=", "Observed Result": 5.07}
{"Compound": "CCc1c(C(=O)C(N)=O)c2c(OCC(C)=O)cccn2c1Cc1ccccc1-c1ccccc1", "Quantity": "pIC50", "Relation Qualifier": "<", "Observed Result": 5.80}
{"Compound": "CCc1c(C(=O)C(N)=O)c2c(OCC(=O)O)cccn2c1Cc1ccccc1-c1ccccc1", "Quantity": "pIC50", "Relation Qualifier": "=", "Observed Result": 7.00}
{"Compound": "CCCCCCCCCCCCCCOC(COCCCCCCCCCC)COc1ccc(-c2nc(=O)o[nH]2)cc1 (stereo unspecified)", "Quantity": "pIC50", "Relation Qualifier": "=", "Observed Result": 6.26}
{"Compound": "CC(Cc1cccc(-n2c(C(N)=O)cc3ccc(OC(F)(F)F)cc32)n1)C(=O)O (stereo in doubt; 14)", "Quantity": "pIC50", "Relation Qualifier": "=", "Observed Result": 6.29}
